system: Klebsiella pneumoniae Kl-38; assay: MIC (minimum inhibitory concentration); details: Klebsiella pneumoniae, KL38, Table 3
# MIC annotations
Field format: number, assumed µg/mL, no unit text.

INSERT INTO results (compound, unit_tag, experimental_result) VALUES
  ('NC[C@H]1O[C@H](O[C@H]2[C@H](O)[C@@H](O[C@H]3O[C@H](CO)[C@@H](O)[C@H](N)[C@H]3O)[C@H](NC(=O)C3(O)CCNCC3)C[C@@H]2N)[C@H](N)C[C@@H]1O [TOB der.]', 'µg/mL', 0.78);

Can you look up the measured MIC of NC[C@H]1O[C@H](O[C@H]2[C@H](O)[C@@H](O[C@H]3O[C@H](CO)[C@@H](O)[C@H](N)[C@H]3O)[C@H](NC(=O)C3(O)CCNC3)C[C@@H]2N)[C@H](O)[C@@H](O)[C@@H]1O (stereo partly shown) [KM-A der.] for me?
3.13

Tell me the measured MIC of NC[C@H]1O[C@H](O[C@H]2[C@H](O)[C@@H](O[C@H]3O[C@H](CO)[C@@H](O)[C@H](N)[C@H]3O)[C@H](N)C[C@@H]2N)[C@H](N)C[C@@H]1O [TOB, tobramycin] , please.
1.56

###

tested on: Staphylococcus aureus 80285
Each entry below carries its recorded MIC.
Could you give me the number in µg/mL? Just the number is fine.

INSERT INTO results (molecule, test_system, experimental_result) VALUES
  ('NC[C@H]1O[C@H](O[C@H]2[C@H](O)[C@@H](O[C@H]3O[C@H](CO)[C@@H](O)[C@H](N)[C@H]3O)[C@H](NC(=O)C3(O)CCNC3)C[C@@H]2N)[C@H](O)[C@@H](O)[C@@H]1O (stereo partly shown)', 'Staphylococcus aureus 80285', 12.5);

Notebook: pull reported MIC for Staphylococcus aureus 80285, entry "NC[C@H]1O[C@H](O[C@H]2[C@H](O)[C@@H](O[C@H]3O[C@H](CO)[C@@H](O)[C@H](N)[C@H]3O)[C@H](NC(=O)C3(O)CCNCC3)C[C@@H]2N)[C@H](N)C[C@@H]1O"
0.39

Recall the recorded MIC for "NC[C@H]1O[C@H](O[C@H]2[C@H](O)[C@@H](O[C@H]3O[C@H](CO)[C@@H](O)[C@H](N)[C@H]3O)[C@H](N)C[C@@H]2N)[C@H](N)C[C@@H]1O" with Staphylococcus aureus 80285 and state it.
0.78

###

tested on: Escherichia coli W-677/JR 762; experiment: MIC (minimum inhibitory concentration); conditions: Escherichia coli, W677/JR762
property.name: MIC (mg/L)
Express it in mg/L; write the number only.

Recorded MIC, per entry:
INSERT INTO assay_data (compound, unit_tag, experimental_result) VALUES
  ('NC[C@H]1O[C@H](O[C@H]2[C@H](O)[C@@H](O[C@H]3O[C@H](CO)[C@@H](O)[C@H](N)[C@H]3O)[C@H](NC(=O)C3(O)CCNCC3)C[C@@H]2N)[C@H](N)C[C@@H]1O [TOB der.]', 'mg/L', 6.25),
  ('CN[C@@H]1[C@@H](O)[C@@H](O[C@@H]2[C@@H](O)[C@H](O[C@H]3OC(CN)=CC[C@H]3N)[C@@H](N)C[C@H]2N)OC[C@]1(C)O [SSM, sisomicin]', 'mg/L', 50);

Next item in the queue.
What reported MIC corresponds to NC[C@H]1O[C@H](O[C@H]2[C@H](O)[C@@H](O[C@H]3O[C@H](CO)[C@@H](O)[C@H](N)[C@H]3O)[C@H](N)C[C@@H]2N)[C@H](N)C[C@@H]1O [TOB, tobramycin] on Escherichia coli W-677/JR 762?
100
